pKi: −log10 of the molar value.
Reported pKi on D(3) dopamine receptor (Homo sapiens, UniProt P35462) for assorted compounds, compiled from publications.
Sequence (P35462 whole entry): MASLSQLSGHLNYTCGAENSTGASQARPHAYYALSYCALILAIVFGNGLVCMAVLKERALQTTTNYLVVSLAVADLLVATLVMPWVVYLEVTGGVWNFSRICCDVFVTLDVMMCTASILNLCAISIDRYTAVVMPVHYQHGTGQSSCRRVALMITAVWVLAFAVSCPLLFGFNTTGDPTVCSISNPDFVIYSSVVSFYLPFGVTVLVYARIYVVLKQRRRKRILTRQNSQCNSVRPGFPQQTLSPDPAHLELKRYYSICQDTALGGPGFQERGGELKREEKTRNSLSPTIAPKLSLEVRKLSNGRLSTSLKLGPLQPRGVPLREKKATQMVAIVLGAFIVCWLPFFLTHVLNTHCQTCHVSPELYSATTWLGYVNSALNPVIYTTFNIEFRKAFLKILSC
measured_parameter: pKi

Clc1ccc2c(c1)C1CN(Cc3ccccc3)CC1CO2 (trans isomer) : 7.80
N#Cc1ccc2[nH]cc(CN3CCN(c4ccc(Cl)cc4)CC3)c2c1 : 5.19
CCc1cc(Cl)c(O)c(C(=O)NCCN2CCN(c3ccccc3)CC2)c1OC : 5.80
O=C(NCCCCN1CCN(c2ccc(O)cc2)CC1)c1cc2ccccc2cn1 : 7.62
CN1CCN(Cc2ccc(OCCCN3CCC(c4noc5cc(F)ccc45)CC3)cc2)CC1 : 7.63

P = O=C(NCCCCN1CCN(c2cccc(Cl)c2Cl)CC1)c1cccc2c1-c1ccccc1C2=O
Q = COc1cc(CN2CCN(c3ccccc3OC)CC2)ccc1OCc1cn(CCOCCOCCn2cc(COc3ccc(CN4CCN(c5ccccc5OC)CC4)cc3OC)nn2)nn1
R = Clc1ccc(-c2cc(C3CCN(CCCc4ccccc4)CC3)[nH]n2)cc1
S = CCN(Cc1ccc(-c2cc(S(=O)(=O)CC)ccc2OC)[nH]1)C1CCCc2ccccc21 (centres undefined)
Provide the items ranked by increasing pKi. Put the labels in the requested order and list them out. R, Q, S, P
(R: 6.06, Q: 7.44, S: 8.30, P: 8.85)

----------
pKi: −log10 of the molar value.
Reported pKi on D(3) dopamine receptor (Homo sapiens) for assorted compounds, compiled from publications.
measured_parameter: pKi

Before answering, review these 2 worked examples.
CNc1cc(OC)c(C(=O)NC[C@@H]2CN(Cc3ccccc3)C[C@@H]2C)cc1Cl : 6.24
CCN1C(=O)c2ccccc2[S@+]([O-])c2ccc(C(=O)NCc3ccc(F)cc3)cc21 : 6.64

a = COc1ccc(N(Cc2cccc(OC)c2)NC(=O)NCCCN2CCN(c3ccccc3OC)CC2)cc1
b = COc1c(C(=O)NCCN2CCN(c3ccc(F)cc3F)CC2)cc(Br)c2ccccc12
c = CN(C)CCN(Cc1ccc(-c2ccc(CNCCc3ccccc3)cc2)cc1)C(=O)CCC1CCCC1
Please rank these compounds by pKi in descending order. Put the labels in the requested order and list them out. b, a, c
(b: 6.70, a: 6.49, c: 6.20)

----------
pKi: −log10 of the molar value.
Reported pKi on D(3) dopamine receptor (Homo sapiens) for assorted molecules, compiled from publications.
measured_parameter: pKi

Before answering, review these 5 worked examples.
FCCOc1ccc(N2CCN(Cc3cc4ccccn4n3)CC2)cc1 : 4.82
N#Cc1ccc2[nH]cc(CN3CCN(c4ccccc4)CC3)c2c1 : 5.36
Clc1ccc(N2CCCN(Cc3c[nH]c4ncccc34)CC2)cc1 : 6.43
CCCN1CCc2cccc3c2C1Cc1cccc(OCc2cn(CCCN4CCN(c5ccccc5OC)CC4)nn2)c1-3 (racemic) : 7.68
N#CC(C#N)=Cc1[nH]ccc1CN1CCN(c2ccc(Cl)cc2)CC1 : 5.12

a = COc1ccccc1N1CCN(CCN2CCc3ncsc3CC2)CC1
b = COc1ccccc1N1CCN(CCCCCc2cn(-c3ccc(N(C)C)cc3)nn2)CC1
c = COc1ccc(N2CCN(CC[C@H]3CC[C@H](Nc4ncccn4)CC3)CC2)cc1
d = COc1ccccc1N1CCN(CCCCNC(=O)/C=C/c2cccc(I)c2)CC1
Please rank these molecules by pKi in descending order. Put the labels in the requested order and list them out. d, b, c, a

a = CS(=O)(=O)Oc1ccc2c(c1)CCN(CC[C@H]1CC[C@H](NC(=O)/C=C/c3ccccc3F)CC1)CC2
b = COc1cc(N)c(Cl)cc1C(=O)NC[C@H]1CCN(Cc2ccccc2)C1
c = O=C1CCc2ccccc2N1CCCN1CCC(c2ccccc2)CC1
d = CCN(Cc1ccc(-c2cc(S(=O)(=O)CC)ccc2OC)[nH]1)Cc1ccccc1OC
e = N#Cc1cc(N2CCN(CC[C@H]3CC[C@H](NC(=O)CN)CC3)CC2)cc(C(F)(F)F)c1
Provide the items ranked by increasing pKi. Put the labels in the requested order and list them out. b, c, d, a, e
(b: 5.66, c: 6.15, d: 8.00, a: 8.90, e: 9.21)

----------
Reported Ki on D(3) dopamine receptor (Homo sapiens) for assorted molecules, compiled from publications.
measured_parameter: Ki (nM)

Before answering, review these 3 worked examples.
COc1cc2c(cc1O)CN(Cc1ccccc1CNC(=O)c1cccc(Cl)c1Cl)CC2 : 460
N#Cc1ccc2c(c1)CN(CC[C@H]1CC[C@H](NC(=O)c3ccnc4ccccc34)CC1)C2 : 63.1
Fc1ccccc1N1CCN(CCCCNc2ccccn2)CC1 : 11

1 = Cc1ccccc1N1CCN(CCCCNc2ccccn2)CC1
2 = N#Cc1ccc2c(c1)C1CN(Cc3ccccc3)CC1CO2 (trans isomer)
3 = Clc1ccc2[nH]ccc2c1N1CCN(Cc2ccccc2)CC1
4 = O=C1CCc2ccccc2N1CCN1CCN(c2ccccc2)CC1
Please rank these molecules by Ki in descending order. Put the labels in the requested order and list them out. 4, 3, 1, 2

----------
Reported Ki on D(3) dopamine receptor (Homo sapiens, UniProt P35462) for assorted molecules, compiled from publications.
measured_parameter: Ki (nM)

COc1cccc(N2CCN(CCCCNC(=O)c3ccccc3)CC2)n1 : 55
O=C(CCCN1CC2CC1CN2c1ccc(Cl)cc1)c1ccc(F)cc1 (stereo not given) : 220

I = COc1ccccc1N1CCN(CCCCNC(=O)N(C)c2ccccc2)CC1
II = COc1ccc(CNC(=O)c2cc(-c3cc(Cl)cc(Cl)c3)cnc2-c2cccnc2)cc1OC
III = COc1cc2c(cc1O)CN(CCCCNC(=O)c1ccc(C(N)=O)cc1)CC2
Provide the items ranked by increasing Ki. Put the labels in the requested order and list them out. I, III, II
(I: 12 nM, III: 28 nM, II: 3240 nM)

----------
Reported Ki on D(3) dopamine receptor (Homo sapiens, UniProt P35462) for assorted compounds, compiled from publications.
measured_parameter: Ki (nM)

Before answering, review these 3 worked examples.
c1ccc(N2CCN(CCCc3nc4ccccc4[nH]3)CC2)cc1 : 832
Clc1cccc(N2CCN(CCCCc3cn(-c4ccn5nccc5c4)nn3)CC2)c1Cl : 0.31
c1nc2c(s1)CCN(CCCCN1CCc3ncsc3CC1)CC2 : 3800

a = Clc1ccc(-c2cc(C3CCN(Cc4ccccc4Cl)CC3)[nH]n2)cc1
b = COc1cc2c(cc1OC)C1=NO[C@@H](CN3CCN(C/C(C)=C/c4ccccc4)CC3)[C@@H]1CO2
c = Cc1cc(C)n2c1C=[N+]1[N+](=C3C=CC=C(NCCCCN4CCN(c5cccc(Cl)c5Cl)CC4)N3[B-]1(F)F)[B-]2(F)F
Please rank these compounds by Ki in descending order. Put the labels in the requested order and list them out. a, b, c

a = CN(CCCN1c2ccccc2Sc2ccc(Cl)cc21)Cc1ccc(OCCCN2CCCCC2)cc1
b = Cn1c(N2CCCC2)nc2c(CN3CCN(c4ccccn4)CC3)c[nH]c2c1=O
c = CCc1cccc(N2CCN(CCCCNC(=O)c3c(C)nc4sccn34)CC2)c1Cl
d = Cc1ccc(OCCNCCCOc2cccc(C)c2)cc1
e = COc1ccc2c(c1)CCN(C)CCCc1ccccc1C2
Provide the items ranked by increasing Ki. Put the labels in the requested order and list them out. c, a, d, b, e
(c: 0.941 nM, a: 50 nM, d: 192 nM, b: 310 nM, e: 507 nM)

1 = c1ccc(CN2CCN(c3cccc4[nH]cnc34)CC2)cc1
2 = C#Cc1cccn1C1CCN(Cc2ccccc2)CC1
Endpoint returns whichever of 1 and 2 has the numerically higher Ki. Answer = label. 2

a = COc1ccccc1N1CCN(CC2COCC(c3ccccc3)(c3ccccc3)O2)CC1 (stereo unspecified)
b = COc1ccc(N2CCN(Cc3c[nH]c4ncccc34)CC2)cc1
Could you tell me which of these two has the smaller Ki figure? First: a Second: b Answer = label. a
(a: 257 nM, b: 3900 nM)

a = Cc1ccccc1N1CCN(CCCCc2cc(-c3ccccc3)no2)CC1
b = N#Cc1ccccc1N1CCN(CNC(=O)c2cccc(Cl)c2)CC1
Endpoint returns whichever of a and b has the numerically higher Ki. Answer = label. b

1 = CN1CCc2ccc(Cc3ccc(O)cc3)c3c2[C@H]1Cc1ccc(O)c(O)c1-3
2 = COc1ccccc1N1CCN(Cc2cn3nc(Cl)ccc3n2)CC1
Endpoint returns whichever of 1 and 2 has the numerically higher Ki. Answer = label. 2
(2: 1400 nM, 1: 28 nM)

1 = Cc1nn(C2CCN(Cc3ccccc3)CC2)cc1-c1ccccc1
2 = COc1ccccc1N1CCN(CCCCNC(=O)c2cccc(I)c2)CC1
Could you tell me which of these two has the smaller Ki figure? First: 1 Second: 2 Answer = label. 2

1 = COc1cccc(-c2ccccc2CNC(=O)NCCCN2CCN(c3ccccc3OC)CC2)c1
2 = CN[C@H]1c2c(ccc3c2ccn3S(=O)(=O)c2ccccc2)[C@@H]1CCO (relative stereo)
Endpoint returns whichever of 1 and 2 has the numerically higher Ki. Answer = label. 2
(2: 1260 nM, 1: 75 nM)
